Reported values: IC50 for EML4-ALK wt v1 in NIH-3T3 cells (Homo sapiens, UniProt Q9UM73), one per item.
measurement-label: IC50 (nM)

a = C[C@@H](Oc1nc(-c2ccc(C(N)=O)nc2)cnc1N)c1cc(F)ccc1-n1nccn1 [Example 64]
b = COc1ccc(F)cc1C(C)Oc1cc(-c2ncsc2CO)cnc1N (centres unmarked) [Example 13]
c = C[C@@H](Oc1cc(-c2ccc(C(C)(C)O)c(S(C)(=O)=O)c2)cnc1N)c1cc(F)ccc1-n1nccn1 [Example 111]
Qu. Sort the listed entries by IC50, smallest first. Answer by naming the labels in the order asked.
Ans. c, a, b

* * *

Entries with reported IC50 on EML4-ALK wt v1 in NIH-3T3 cells (Homo sapiens, UniProt Q9UM73)
Sequence (Q9UM73 with tags, fused parts or gaps): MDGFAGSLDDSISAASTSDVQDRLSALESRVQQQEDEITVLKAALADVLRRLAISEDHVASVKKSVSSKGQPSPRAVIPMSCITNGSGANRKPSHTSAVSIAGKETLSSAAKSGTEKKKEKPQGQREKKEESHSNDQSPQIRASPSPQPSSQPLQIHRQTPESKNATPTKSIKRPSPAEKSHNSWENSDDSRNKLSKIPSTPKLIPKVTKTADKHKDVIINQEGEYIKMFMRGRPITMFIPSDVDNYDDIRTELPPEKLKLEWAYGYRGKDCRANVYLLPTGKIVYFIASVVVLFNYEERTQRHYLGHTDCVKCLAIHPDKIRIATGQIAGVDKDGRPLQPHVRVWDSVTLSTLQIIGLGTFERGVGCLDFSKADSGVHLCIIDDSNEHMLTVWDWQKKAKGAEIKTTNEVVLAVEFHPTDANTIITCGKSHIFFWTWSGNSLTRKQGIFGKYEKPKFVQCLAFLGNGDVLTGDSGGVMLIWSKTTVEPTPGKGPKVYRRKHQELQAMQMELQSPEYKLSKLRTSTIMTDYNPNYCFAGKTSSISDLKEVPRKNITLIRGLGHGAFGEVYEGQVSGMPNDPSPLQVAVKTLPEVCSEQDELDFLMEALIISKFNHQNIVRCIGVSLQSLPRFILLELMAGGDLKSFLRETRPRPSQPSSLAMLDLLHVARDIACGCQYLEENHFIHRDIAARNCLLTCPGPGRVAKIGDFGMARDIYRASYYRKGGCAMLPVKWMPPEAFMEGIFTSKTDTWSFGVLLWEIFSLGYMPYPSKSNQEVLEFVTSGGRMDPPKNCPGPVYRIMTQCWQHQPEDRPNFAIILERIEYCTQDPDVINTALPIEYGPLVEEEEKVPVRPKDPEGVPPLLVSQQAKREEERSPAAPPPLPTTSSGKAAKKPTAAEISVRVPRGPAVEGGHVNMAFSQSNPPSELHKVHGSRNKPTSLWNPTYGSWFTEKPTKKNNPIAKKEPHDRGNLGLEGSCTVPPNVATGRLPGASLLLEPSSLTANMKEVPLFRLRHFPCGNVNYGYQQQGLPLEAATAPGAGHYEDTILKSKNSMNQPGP
measurement-label: IC50 (nM)

COc1ccc(F)cc1[C@@H](C)Oc1cc(-c2c(C)nn(CC(O)CO)c2C)cnc1N (stereo partly drawn)	4.54

a = Cc1nc(C#N)c(-c2cnc(N)c(O[C@H](C)c3cc(F)ccc3-n3nccn3)c2)o1
b = CC(O)c1ncc(-c2cnc(N)c(O[C@H](C)c3cc(F)ccc3-n3nccn3)c2)s1 (stereo partly drawn)
c = COc1ccc(F)cc1C(C)Oc1nc(-c2cn(C)c(C)n2)cnc1N (stereo not drawn)
d = C[C@@H](Oc1cc(-c2cnn([C@H]3CCCNC3)c2)cnc1N)c1cc(F)ccc1-n1nccn1
e = Cc1nn(C2CCNCC2)cc1-c1cnc(N)c(O[C@H](C)c2cc(F)ccc2-n2nccn2)c1
Qu. Ordering criterion: IC50; begin with the maximum. Respond with an ordered listing of the labels, as requested.
Ans. c, a, b, d, e
(c: 245 nM, a: 161 nM, b: 22.1 nM, d: 10.8 nM, e: 2.04 nM)

P = CCc1nc(CO)sc1-c1cnc(N)c(O[C@H](C)c2cc(F)ccc2-n2nccn2)c1
Q = COc1ccc(F)cc1C(C)Oc1cc(-c2nsc(S(C)(=O)=O)n2)cnc1N (stereo not drawn)
Qu. Hi there! Just curious which has the higher IC50 between P and Q . Answer by stating the label of the chosen item.
Ans. Q

A = C[C@@H](Oc1cc(-c2cnc(CO)n2C)cnc1N)c1cc(F)ccc1-n1nccn1
B = COc1ccc(F)cc1C(C)Oc1cc(-c2cnn(C)c2CO)cnc1N (stereo not drawn)
C = CCn1cc(-c2cnc(N)c(O[C@H](C)c3cc(F)ccc3-n3nccn3)c2)ccc1=O
Qu. Rank by IC50 (largest to smallest). Lab note: final answer is the ordered label list.
Ans. B, C, A

a = COc1ccc(-c2cnc(N)c(O[C@H](C)c3cc(F)ccc3-n3nccn3)c2)cc1S(N)(=O)=O
b = CC1CNc2ncc(-c3cnc(N)c(O[C@H](C)c4cc(F)ccc4-n4nccn4)c3)cc2O1 (stereo partly drawn)
Qu. Could you determine which record has the numerically smaller IC50? Candidates: a and b // caller expects the label of the chosen entry
Ans. a
(a: 2.45 nM, b: 15.5 nM)

* * *

target: human recombinant wild-type ALK kinase domain (amino acids 1093-1411) (Homo sapiens); construct: ALK kinase domain (amino acids 1093-1411); test: ALK enzyme assay 2 (microfluidic mobility shift assay);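 further: kinase reaction run 1 h at room temperature, conversion quantified by electrophoretic separation of fluorescent peptide substrate from phosphorylated product, about 15-20% turnover without inhibitor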
measurement-label: Ki (nM)

I = Cc1n[nH]cc1-c1cnc(N)c(OC(C)c2cc(F)ccc2Cl)c1 (stereo not shown) [Example 45]
II = Cc1nn(CS(C)(=O)=O)c(C)c1-c1cnc(N)c(O[C@H](C)c2cc(F)ccc2-n2nccn2)c1 [Example 95]
Qu. Please indicate which has the smaller reported Ki: I , or II . Answer by quoting the chosen item's label.
Ans. II

* * *

molecular target: EML4-ALK wt v1 in NIH-3T3 cells (Homo sapiens)
measurement-label: IC50 (nM)

Consider the following illustrative entries.
Cc1nn(C2CCNC2=O)cc1-c1cnc(N)c(O[C@H](C)c2cc(F)ccc2-n2nccn2)c1 (some centres unmarked)	2.82
COc1ccc(S(C)(=O)=O)cc1-c1cnc(N)c(O[C@H](C)c2cc(F)ccc2-n2nccn2)c1	3.21
Cc1c(-c2cnc(N)c(O[C@H](C)c3cc(F)ccc3-n3nccn3)c2)cnn1C1CCNCC1	3.7
COc1ccc(F)cc1C(C)Oc1cc(-c2c(OC)cnn2C)cnc1N (centres unmarked)	123

A = Cc1nn(CC(O)CO)c(C)c1-c1cnc(N)c(O[C@H](C)c2cc(F)ccc2-n2nccn2)c1 (some centres unmarked)
B = C[C@@H](Oc1cc(-c2cccc3c2CNC3=O)cnc1N)c1cc(F)ccc1-n1nccn1
Qu. Between A and B , whose measured IC50 reads higher? When you have decided, please share the label of that item.
Ans. B

P = COc1ccc(F)cc1C(C)Oc1cc(-c2c(C)noc2C)cnc1N (centres unmarked)
Q = Cc1n[nH]cc1-c1cnc(N)c(OC(C)c2cc(F)ccc2-n2cccn2)c1 (centres unmarked)
Qu. Could you please tell me which of these two has the higher IC50: P or Q ? Please respond with the label that marks your chosen entry.
Ans. P
(P: 194 nM, Q: 45.7 nM)

* * *

molecular target: EML4-ALK wt v1 in NIH-3T3 cells (Homo sapiens); conditions: read-out: ELISA assay for WT EML4-ALK (IC50); cellular phospho-ALK (Tyr1604), NIH-3T3 EML4-ALK wt v1 cells, 1 hour
measurement-label: IC50 (nM)
Reply with just the number (in nM).

Qu. In one line, give reported IC50 of the entry CC(Oc1cc(-c2cn(C)cn2)cnc1N)c1cc(F)ccc1Cl (stereo not shown) .
Ans. 1080

* * *

molecular target: ALK enzyme (Homo sapiens, UniProt Q9UM73); construct: purchased Invitrogen PV4185; assay: ALK enzymatic activity assay 1; type: biochemical
Sequence (Q9UM73 19-1620): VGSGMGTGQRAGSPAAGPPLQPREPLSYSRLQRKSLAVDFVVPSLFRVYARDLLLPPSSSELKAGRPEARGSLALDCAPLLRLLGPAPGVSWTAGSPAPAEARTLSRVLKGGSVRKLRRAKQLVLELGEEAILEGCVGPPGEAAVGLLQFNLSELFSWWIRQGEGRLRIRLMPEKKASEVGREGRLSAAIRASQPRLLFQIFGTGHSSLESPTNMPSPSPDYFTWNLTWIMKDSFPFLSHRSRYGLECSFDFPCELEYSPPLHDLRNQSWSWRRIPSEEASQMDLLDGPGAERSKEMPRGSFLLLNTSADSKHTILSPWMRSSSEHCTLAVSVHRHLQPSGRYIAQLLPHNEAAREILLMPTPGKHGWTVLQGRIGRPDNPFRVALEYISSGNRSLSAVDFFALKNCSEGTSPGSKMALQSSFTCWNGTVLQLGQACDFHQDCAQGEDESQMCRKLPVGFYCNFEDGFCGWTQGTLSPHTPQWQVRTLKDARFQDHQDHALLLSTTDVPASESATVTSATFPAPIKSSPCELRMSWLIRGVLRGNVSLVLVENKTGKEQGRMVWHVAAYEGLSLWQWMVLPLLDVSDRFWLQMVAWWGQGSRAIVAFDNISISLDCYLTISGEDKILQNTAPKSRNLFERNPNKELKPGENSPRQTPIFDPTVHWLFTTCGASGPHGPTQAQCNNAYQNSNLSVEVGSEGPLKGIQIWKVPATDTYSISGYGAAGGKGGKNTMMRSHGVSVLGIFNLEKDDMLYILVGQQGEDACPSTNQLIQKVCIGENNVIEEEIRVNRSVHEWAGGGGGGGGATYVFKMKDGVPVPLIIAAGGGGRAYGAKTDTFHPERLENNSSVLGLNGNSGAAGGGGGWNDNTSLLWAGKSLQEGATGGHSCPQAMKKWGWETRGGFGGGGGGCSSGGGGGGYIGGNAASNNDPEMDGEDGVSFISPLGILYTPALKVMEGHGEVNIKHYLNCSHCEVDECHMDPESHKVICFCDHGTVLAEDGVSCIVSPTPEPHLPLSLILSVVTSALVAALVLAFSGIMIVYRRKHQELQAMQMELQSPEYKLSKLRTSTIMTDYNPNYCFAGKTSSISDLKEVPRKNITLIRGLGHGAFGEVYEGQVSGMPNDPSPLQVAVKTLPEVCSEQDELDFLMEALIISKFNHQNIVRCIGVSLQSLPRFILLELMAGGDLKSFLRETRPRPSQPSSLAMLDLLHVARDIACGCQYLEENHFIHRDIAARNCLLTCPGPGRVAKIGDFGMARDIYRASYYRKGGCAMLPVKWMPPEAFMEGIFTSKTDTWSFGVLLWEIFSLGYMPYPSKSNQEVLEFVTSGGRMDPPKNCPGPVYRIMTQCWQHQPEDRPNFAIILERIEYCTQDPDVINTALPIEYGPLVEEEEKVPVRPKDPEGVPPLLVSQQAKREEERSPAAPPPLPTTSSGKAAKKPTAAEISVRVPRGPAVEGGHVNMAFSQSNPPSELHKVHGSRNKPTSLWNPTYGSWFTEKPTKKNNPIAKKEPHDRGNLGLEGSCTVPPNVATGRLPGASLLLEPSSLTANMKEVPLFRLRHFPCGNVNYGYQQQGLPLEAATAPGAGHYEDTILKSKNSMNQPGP
pIC50: −log10 of the molar value. Structures can show the parent of a compound that is named as a salt.
measurement-label: pIC50

See these solved cases before continuing.
COc1ccc(F)cc1C(C)Oc1cc(-c2cncc(S(C)(=O)=O)c2)cnc1N (centres unmarked)	7.29
COc1ncc(F)cc1[C@@H](C)Oc1cc(-c2ccnn2C)cnc1N	7.15
CC(Oc1nc(-c2cn(C)cn2)cnc1N)c1cc(F)ccc1Cl (centres unmarked)	6.90
COc1ccc(F)cc1C(C)Oc1cc(-c2cnc(N)nc2C)cnc1N (centres unmarked)	7.32
COc1ccc(F)cc1C(C)Oc1cc(-c2scnc2CO)cnc1N (centres unmarked)	7.13

a = COc1ncc(F)cc1C(C)Oc1cc(-c2ccnn2C)cnc1N (centres unmarked) [Example 33, monohydrochloride]
b = COc1ccc(F)cc1C(C)Oc1cc(-c2c(OC)cnn2C)cnc1N (centres unmarked)
Qu. Which record shows the lower pIC50: the first, a , or the second, b ? Give the chosen item's label as your response.
Ans. a
(a: 7.05, b: 7.42)

1 = CC(Oc1cc(-c2ccnn2C)cnc1N)c1cc(F)ccc1C#N (centres unmarked) [Example 36, monohydrochloride]
2 = COc1ccc(F)cc1C(C)Oc1cc(-c2ccnn2CCO)cnc1N (centres unmarked)
Qu. Which has the smaller recorded pIC50, 1 or 2 ? Give the chosen item's label as your response.
Ans. 1
(1: 6.92, 2: 7.28)

1 = Cc1n[nH]c(C)c1-c1cnc(N)c(OC(C)c2cc(F)ccc2-n2nccn2)c1 (centres unmarked)
2 = COc1ccc(F)cc1[C@@H](C)Oc1cc(-c2cncn2C)cnc1N
3 = C=Cn1nnc(C)c1-c1cnc(N)c(OC(C)c2cc(F)ccc2OC)c1 (centres unmarked)
Qu. Which order do these items take when sorted by rising pIC50? List them. Provide your answer as the labels ordered per the instruction.
Ans. 1, 3, 2

P = COc1ccc(F)cc1C(C)Oc1cc(-c2ccnn2C)cnc1N (centres unmarked) [Example 43, monohydrochloride]
Q = COc1ccc(F)cc1C(C)Oc1cc(-c2cc(Cl)nnc2N)cnc1N (centres unmarked)
R = CC(Oc1cc(-c2ccnn2C)cnc1N)c1cc(F)cc2scnc12 (centres unmarked)
S = COc1ncc(F)cc1C(C)Oc1cc(-c2c[nH]nc2C)cnc1N (centres unmarked)
Qu. Put the items in sequence by pIC50, from largest down. Please respond with the labels ordered as the question requires.
Ans. S, P, R, Q

* * *

molecular target: ALK enzyme (Homo sapiens); construct: purchased Invitrogen PV4185; assay: ALK enzymatic activity assay 1; assay type: biochemical
pIC50: −log10 of the molar value.
measurement-label: pIC50

COc1ccc(F)cc1C(C)Oc1cc(-c2c(CO)cnn2C)cnc1N (stereo not drawn)	7.03
COc1ccc(F)cc1C(C)Oc1nc(-c2cn(C)c(C)n2)cnc1N (stereo not drawn)	7.23
COc1ccc(F)cc1[C@@H](C)Oc1cc(-c2cccnc2CO)cnc1N	7.33

A = COc1ccc(F)cc1C(C)Oc1nc(-c2cn(C)cn2)cnc1N (stereo not drawn)
B = COc1ccc(F)cc1[C@@H](C)Oc1cc(-c2c(C)nn(CC(O)CO)c2C)cnc1N (stereo partly drawn)
Qu. Returns: the argument ( A or B ) having the larger pIC50. Reply with the label of the item you choose.
Ans. B
(B: 7.62, A: 7.06)

1 = CC(Oc1cc(-c2ccnn2C)cnc1N)c1cc(F)ccc1-n1ccnn1 (stereo not drawn)
2 = C[C@@H](Oc1cc(-c2scnc2CO)cnc1N)c1cc(F)ccc1-n1nccn1
Qu. # return whichever of 1 and 2 has the smaller pIC50 Please identify the chosen entry by its label.
Ans. 1
(1: 6.98, 2: 7.20)
